- System: S. aureus ATCC 43300
- Protocol: In vitro antibacterial activity assay (MIC, broth dilution)
- Type: cell-based
- Condition parameters: Staphylococcus aureus, ATCC43300; Table 3; read-out: MIC S. aureus ATCC 43300
Observation type: MIC

Worked cases, MIC given:
[[record]]
molecule = "Nc1cnc(-c2cc3c(cc2F)c(=O)c(C(=O)O)cn3C2CC2)nc1"
reported_result = "0.1 to 1 µg/mL"

[[record]]
molecule = "N#Cc1cc(-c2cc3c(cc2F)c(=O)c(C(=O)O)cn3C2CC2)ccc1S(=O)(=O)NCCCC(F)(F)F"
reported_result = "0.1 to 1 µg/mL"

[[record]]
molecule = "Nc1cc(-c2c(F)cc3c(=O)c(C(=O)O)cn(C4CC4)c3c2Cl)ccn1"
reported_result = "≤ 0.1 µg/mL"

[[record]]
molecule = "O=C(O)c1cn(C2CC2)c2cc(-c3ccnc(NC(=O)C(F)(F)F)c3)c(F)cc2c1=O"
reported_result = "0.1 to 1 µg/mL"

[[record]]
molecule = "Nc1cc(-c2nc3c(cc2F)c(=O)c(C(=O)O)cn3C2CC2)ccn1.O=CO"
reported_result = "0.1 to 1 µg/mL"


Query: Please look up its MIC: CCCCCCCNS(=O)(=O)c1ccc(-c2cc3c(cc2F)c(=O)c(C(=O)O)cn3C2CC2)cn1
Response: ≤ 0.1 µg/mL

Query: Now consider COc1c(-c2ccc([S+]([O-])CCO)cc2)c(F)cc2c(=O)c(C(=O)O)cn(C3CC3)c12 (stereo not shown) .
Response: ≤ 0.1 µg/mL

Query: Now consider C#CCNS(=O)(=O)c1ccc(-c2cc3c(cc2F)c(=O)c(C(=O)O)cn3C2CC2)cc1[N+](=O)[O-] .
Response: 0.1 to 1 µg/mL

Query: Now consider O=C(O)c1cn(C2CC2)c2c(Cl)c(-c3ccc(S(=O)(=O)NCCO)cc3)c(F)cc2c1=O .
Response: ≤ 0.1 µg/mL

Query: Now consider CCCCCNS(=O)(=O)c1ccc(-c2c(F)cc3c(=O)c(C(=O)O)cn(C4CC4)c3c2OC)cc1 .
Response: ≤ 0.1 µg/mL

Query: Now consider COc1c(-c2ccc(S(N)(=O)=O)c([N+](=O)[O-])c2)c(F)cc2c(=O)c(C(=O)O)cn(C3CC3)c12 .
Response: ≤ 0.1 µg/mL

Query: Now consider COc1c(-c2ccnc(CO)c2)c(F)cc2c(=O)c(C(=O)O)cn(C3CC3)c12 .
Response: 1 to 8 µg/mL

---

- Tested on: S. aureus ATCC 43300
- Protocol: In vitro antibacterial activity assay (MIC, broth dilution)
- Assay type: cell-based
- Condition parameters: Staphylococcus aureus, ATCC43300; Table 3; read-out: MIC S. aureus ATCC 43300
Observation type: MIC

Worked cases, MIC given:
[[record]]
molecule = "CCn1cc(C(=O)O)c(=O)c2cc(OC)c(-c3ccc(N)nc3)c(C)c21"
observation_type = "MIC"
reported_result = "0.1 to 1 µg/mL"

[[record]]
molecule = "CS(=N)(=O)c1ccc(-c2cc3c(cc2F)c(=O)c(C(=O)O)cn3C2CC2)cc1 (centres unmarked)"
observation_type = "MIC"
reported_result = "0.1 to 1 µg/mL"

[[record]]
molecule = "COc1c(-c2ncncn2)c(F)cc2c(=O)c(C(=O)O)cn(C3CC3)c12"
observation_type = "MIC"
reported_result = "0.1 to 1 µg/mL"

[[record]]
molecule = "O=C(O)c1cn(C2CC2)c2cc(-c3ccc4c(c3)CNS4(=O)=O)c(F)cc2c1=O"
observation_type = "MIC"
reported_result = "≤ 0.1 µg/mL"


Lab note: next molecule to report on.
Query: Please look up its MIC: O=C(CCl)Nc1ncc(-c2cc3c(cc2F)c(=O)c(C(=O)O)cn3C2CC2)cc1F
Response: ≤ 0.1 µg/mL

---

- System: S. aureus ATCC 43300
- Protocol: In vitro antibacterial activity assay (MIC, broth dilution)
- Assay type: cell-based
- Condition parameters: Staphylococcus aureus, ATCC43300; Table 3; read-out: MIC S. aureus ATCC 43300
Overview of reported MIC across a group of compounds:

Worked cases, MIC given:
[[record]]
compound = "COc1cc(-c2c(F)cc3c(=O)c(C(=O)O)cn(C4CC4)c3c2OC)ccc1NC(C)=O [Example 66]"
reported_result = "0.1 to 1 µg/mL"

[[record]]
compound = "Nc1cnc(-c2cc3c(cc2F)c(=O)c(C(=O)O)cn3C2CC2)cc1F [Example 91]"
reported_result = "0.1 to 1 µg/mL"

[[record]]
compound = "O=C(CCl)Nc1cnc(-c2cc3c(cc2F)c(=O)c(C(=O)O)cn3C2CC2)cn1 [Example 96]"
reported_result = "≤ 0.1 µg/mL"


Query: Please look up its MIC: O=C(O)c1cn(C2CC2)c2cc(-c3ccc4c(c3)S(=O)(=O)NC4)c(F)cc2c1=O [Example 113]
Response: ≤ 0.1 µg/mL
